Target: T1, TNFR1 (Homo sapiens, UniProt P19438)
T1 chain: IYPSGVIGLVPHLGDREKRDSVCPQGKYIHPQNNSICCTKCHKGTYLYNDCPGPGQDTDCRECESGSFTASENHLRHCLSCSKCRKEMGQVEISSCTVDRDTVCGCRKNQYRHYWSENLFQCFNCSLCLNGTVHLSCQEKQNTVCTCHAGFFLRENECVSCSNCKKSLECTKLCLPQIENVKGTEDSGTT
Assay: yeast display SC50
measure: apparent Kd (screen) (nM)
Quick note: give the figure in nM, leave out the unit.

Consider the binder shown here: E58C (designed binder) MTLQELLREEALRRAEAEAFRYALELLAEKFPEQKEYLLDLAEEIESQIRSLSGVDVCDVRKFLDKEWAWVKELLAEHPAELAEVEAARAARLAELRAEVEAKVAA What is its recorded apparent Kd (screen)?
0.653

Consider the binder shown here: L6G (designed binder) MTLQEGLREEALRRAEAEAFRYALELLAEKFPEQKEYLLDLAEEIESQIRSLSGVDVEDVRKFLDKEWAWVKELLAEHPAELAEVEAARAARLAELRAEVEAKVAA What is its recorded apparent Kd (screen)?
22.2

Consider the binder shown here: S47P (designed binder) MTLQELLREEALRRAEAEAFRYALELLAEKFPEQKEYLLDLAEEIEPQIRSLSGVDVEDVRKFLDKEWAWVKELLAEHPAELAEVEAARAARLAELRAEVEAKVAA What is its recorded apparent Kd (screen)?
3.3

Consider the binder shown here: V104E (designed binder) MTLQELLREEALRRAEAEAFRYALELLAEKFPEQKEYLLDLAEEIESQIRSLSGVDVEDVRKFLDKEWAWVKELLAEHPAELAEVEAARAARLAELRAEVEAKEAA What is its recorded apparent Kd (screen)?
0.653

Consider the binder shown here: E25R (designed binder) MTLQELLREEALRRAEAEAFRYALRLLAEKFPEQKEYLLDLAEEIESQIRSLSGVDVEDVRKFLDKEWAWVKELLAEHPAELAEVEAARAARLAELRAEVEAKVAA What is its recorded apparent Kd (screen)?
0.49

Consider the binder shown here: Q48V (designed binder) MTLQELLREEALRRAEAEAFRYALELLAEKFPEQKEYLLDLAEEIESVIRSLSGVDVEDVRKFLDKEWAWVKELLAEHPAELAEVEAARAARLAELRAEVEAKVAA What is its recorded apparent Kd (screen)?
1.27

Consider the binder shown here: E77A (designed binder) MTLQELLREEALRRAEAEAFRYALELLAEKFPEQKEYLLDLAEEIESQIRSLSGVDVEDVRKFLDKEWAWVKELLAAHPAELAEVEAARAARLAELRAEVEAKVAA What is its recorded apparent Kd (screen)?
0.539

Consider the binder shown here: A87H (designed binder) MTLQELLREEALRRAEAEAFRYALELLAEKFPEQKEYLLDLAEEIESQIRSLSGVDVEDVRKFLDKEWAWVKELLAEHPAELAEVEHARAARLAELRAEVEAKVAA What is its recorded apparent Kd (screen)?
0.49
